METHOD SUMMARY: log P by HPLC on reversed-phase column (C18), EEC Directive 79/831 Annex V.A8
Assay type: physicochemical
TEST SETTINGS: reversed-phase C18 HPLC column, pH 2.7; HCOOH (formic acid mobile phase), 43° C.; read-out: log P (HCOOH)
Entries annotated with measured chromatographic logP
API doc: respond with a numeric literal and nothing else, no unit.

Example cases with answers are listed next.
{"SMILES REPRESENTATION": "COC(=O)c1nc(Br)n(CCC(F)(F)F)c1Br", "RESULT VALUE": 2.13}
{"SMILES REPRESENTATION": "COC(=O)c1cn(CCC(F)(F)F)cn1", "RESULT VALUE": 0.87}
{"SMILES REPRESENTATION": "O=C(NS(=O)(=O)c1ccccc1Cl)c1nc(Br)n(CCC(F)(F)F)c1Br", "RESULT VALUE": 2.99}

Would you kindly look at the next entry?
Documented chromatographic logP of Cc1nc(C(=O)O)cn1-c1ccccc1Cl : 0.67

----------
Tested on: Tetranychus urticae
METHOD SUMMARY: Tetranychus urticae spray test, OP-resistant
Assay type: in vivo
TEST SETTINGS: foliar, 144 h, bean leaf discs, after 6 days, read-out: efficacy
PARAMETER: pest or weed control at 500 g/ha

{"MOLECULE": "O=C(NS(=O)(=O)c1ccc(Cl)cc1)c1cn(Cc2cccc(Cl)c2)cn1", "pest or weed control at 500 g/ha": "70%"}
{"MOLECULE": "O=C(NS(=O)(=O)c1ccccc1)c1cn(-c2cccc(Cl)c2)cn1", "pest or weed control at 500 g/ha": "100%"}
{"MOLECULE": "CC(C)S(=O)(=O)NC(=O)c1nc(Cl)n(CCC(F)(F)F)c1Cl", "pest or weed control at 500 g/ha": "90%"}
{"MOLECULE": "CCSc1cccc(Cl)c1S(=O)(=O)NC(=O)c1cn(-c2cc(Cl)cc(Cl)c2)cn1", "pest or weed control at 500 g/ha": "70%"}

Documented pest or weed control at 500 g/ha of CC(CC(F)(F)F)n1cnc(C(=O)NS(=O)(=O)c2ccc(Cl)cc2)c1Cl (centres unmarked) : 90%

----------
Test system: Tetranychus urticae
METHOD SUMMARY: Tetranychus urticae spray test, OP-resistant
Format: in vivo
TEST SETTINGS: foliar, 144 h, bean leaf discs, after 6 days, read-out: efficacy
Procedure: Tetranychus urticae—Spray Test, OP-Resistant To produce a suitable active compound preparation, 1 part by weight of active compound is dissolved with the specified parts by weight of solvent and made up to the desired concentration with water containing an emulsifier concentration of 1000 ppm. To produce further test concentrations, the formulation is diluted with emulsifier-containing water. […] After 6 days, the efficacy in % is determined. […]
Entries annotated with measured pest or weed control at 500 g/ha
Give the value, in units of %, as a plain number.

Example cases with answers are listed next.
{"COMPOUND": "O=C(NS(=O)(=O)c1ccccc1)c1cn(-c2cccc(C(F)(F)F)c2)cn1", "OUTPUT UNIT": "%", "pest or weed control at 500 g/ha": 90}
{"COMPOUND": "O=C(NS(=O)(=O)Cc1ccccc1)c1ncn(CCC(F)(F)F)c1Cl", "OUTPUT UNIT": "%", "pest or weed control at 500 g/ha": 90}
{"COMPOUND": "CC(C)S(=O)(=O)NC(=O)c1cn(C)c(Cc2ccc(Cl)cc2)n1", "OUTPUT UNIT": "%", "pest or weed control at 500 g/ha": 100}

Documented pest or weed control at 500 g/ha of Cn1cc(C(=O)NS(=O)(=O)c2ccccc2Cl)nc1Cc1ccc(Cl)cc1 : 90

Documented pest or weed control at 500 g/ha of O=C(NS(=O)(=O)Cc1ccccc1Cl)c1ncn(CCC(F)(F)F)c1Cl : 70

Documented pest or weed control at 500 g/ha of Cc1cccc(CS(=O)(=O)NC(=O)c2ncn(CCC(F)(F)F)c2Cl)c1 : 90

----------
METHOD SUMMARY: log P by HPLC on reversed-phase column (C18), EEC Directive 79/831 Annex V.A8
Assay type: physicochemical
TEST SETTINGS: reversed-phase C18 HPLC column; neutral range, pH 7.8, aqueous ammonium bicarbonate/acetonitrile, 43° C.; read-out: log P (neutral)
Entries annotated with measured chromatographic logP

Example cases with answers are listed next.
{"SMILES REPRESENTATION": "Cc1nc(C(=O)O)cn1-c1ccccc1Cl", "RESULT VALUE": -0.01}
{"SMILES REPRESENTATION": "CCOC(=O)c1cn(-c2ccccc2Cl)c(C)n1", "RESULT VALUE": 2.06}
{"SMILES REPRESENTATION": "CCCn1cnc(C(=O)OCC)c1N", "RESULT VALUE": 0.9}
{"SMILES REPRESENTATION": "CCCn1cnc(C(=O)OCC)c1Cl", "RESULT VALUE": 1.7}
{"SMILES REPRESENTATION": "COC(=O)c1cn(Cc2c(F)cccc2F)cn1", "RESULT VALUE": 1.55}

Documented chromatographic logP of CCCn1cnc(C(=O)NS(=O)(=O)c2ccc(OC)cc2)c1Cl : 0.56

Documented chromatographic logP of Cc1nc(C(=O)NS(=O)(=O)c2ccccc2Cl)cn1-c1ccccc1Cl : 0.85

----------
METHOD SUMMARY: log P by HPLC on reversed-phase column (C18), EEC Directive 79/831 Annex V.A8
Assay type: physicochemical
TEST SETTINGS: pH 2.7
Entries annotated with measured chromatographic logP

{"SMILES REPRESENTATION": "CCCn1cnc(C(=O)O)c1Cl", "PARAMETER": "chromatographic logP", "RESULT VALUE": 0.6}
{"SMILES REPRESENTATION": "O=C(O)c1cn(Cc2c(F)cccc2F)cn1", "PARAMETER": "chromatographic logP", "RESULT VALUE": 0.42}

Would you kindly look at the next entry?
Documented chromatographic logP of O=C(O)c1nc(Br)n(CCC(F)(F)F)c1Br : 1.49

----------
Entries annotated with measured efficacy (laying of fertile eggs)
System: Boophilus microplus
METHOD SUMMARY: Boophilus microplus injection test
Format: in vivo
TEST SETTINGS: 20 μg/animal, after 7 days
Give the value, in units of %, as a plain number.

Example cases with answers are listed next.
{"MOLECULE": "COc1cccc(S(=O)(=O)NC(=O)c2ncn(CCC(F)(F)F)c2Cl)c1", "OUTPUT UNIT": "%", "efficacy (laying of fertile eggs)": 90}
{"MOLECULE": "Cc1cccc(S(=O)(=O)NC(=O)c2ncn(CCC(F)(F)F)c2Cl)c1", "OUTPUT UNIT": "%", "efficacy (laying of fertile eggs)": 100}
{"MOLECULE": "Cc1cc(C)cc(-n2cnc(C(=O)NS(=O)(=O)c3ccccc3)c2)c1", "OUTPUT UNIT": "%", "efficacy (laying of fertile eggs)": 100}
{"MOLECULE": "Cc1nc(C(=O)NS(=O)(=O)c2ccccc2)cn1-c1cccc(Cl)c1Cl", "OUTPUT UNIT": "%", "efficacy (laying of fertile eggs)": 80}
{"MOLECULE": "O=C(NS(=O)(=O)c1ccccc1Cl)c1ncn(C2CC2C(F)(F)F)c1Cl (stereo not drawn)", "OUTPUT UNIT": "%", "efficacy (laying of fertile eggs)": 70}

Would you kindly look at the next entry?
Documented efficacy (laying of fertile eggs) of O=C(NS(=O)(=O)c1ccccc1)c1ncn(C2CC2C(F)(F)F)c1Cl (stereo not drawn) : 100

----------
Entries annotated with measured chromatographic logP
METHOD SUMMARY: log P by HPLC on reversed-phase column (C18), EEC Directive 79/831 Annex V.A8
Type: physicochemical
TEST SETTINGS: reversed-phase C18 HPLC column; acidic range, pH 2.7, 0.1% aqueous formic acid/acetonitrile, 43° C.; read-out: log P (acidic)
API doc: respond with a numeric literal and nothing else, no unit.

Example cases with answers are listed next.
{"SMILES REPRESENTATION": "Cn1nc(C(=O)NS(=O)(=O)c2cc(Cl)ccc2Cl)cc1-c1cccc(C(F)(F)F)c1", "RESULT VALUE": 3.84}
{"SMILES REPRESENTATION": "COc1ccc(Cl)c(S(=O)(=O)NC(=O)c2cn(Cc3c(F)cccc3F)cn2)c1", "RESULT VALUE": 2.18}
{"SMILES REPRESENTATION": "COc1ccc(Cl)c(S(=O)(=O)NC(=O)c2nc(C)n(-c3cc(Cl)cc(Cl)c3)c2F)c1", "RESULT VALUE": 3.71}

Documented chromatographic logP of COC(=O)c1cn(Cc2c(F)cccc2F)cn1 : 1.45
